Target: T1, Activin A (UniProt P08476 311-426)
T1 sequence (looked up): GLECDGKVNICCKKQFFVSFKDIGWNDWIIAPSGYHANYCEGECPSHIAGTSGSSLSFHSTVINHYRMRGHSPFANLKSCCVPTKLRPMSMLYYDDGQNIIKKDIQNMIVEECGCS
Test: SPR (Biacore 8K), Fc protein captured on anti-human IgG, ligand injected
Measure Name: Kd (nM)
Reply with just the number (in nM).

Recorded results for 3 binders are shown here.
ActRIIB-A6 (SEQ ID NO: 124) chimera-Fc protein (Fc fusion, Tested as chimera-Fc protein; not shown: linker (if any) and Fc domain) GRGEAETRECIYYNANWELERTNQSGLERCEGEQDKRLHCYASWRNSSGTIELVKKGCWLDDFNCYDRQECVATKDSPEVYFCCCEGNFCNERFTHLPEAGGPEVTYEPPPTAPT
0.0104
ActRIIB-B3 (SEQ ID NO: 112) chimera-Fc protein (Fc fusion, Tested as chimera-Fc protein; not shown: linker (if any) and Fc domain) GRGEAETRECIYYNANWELERTNQSGLERCEGEQDKRRHCFATWKNISGTIELVKKGCWLDDFNCYDRQECVATEENPQVYFCCCEGNFCNERFTHLPEAGGPEVTYEPPPTAPT
0.00152
ActRIIB-A5 (SEQ ID NO: 123) chimera-Fc protein (Fc fusion, Tested as chimera-Fc protein; not shown: linker (if any) and Fc domain) GRGEAETRECIYYNANWELERTNQSGLERCEGEQDKRLHCYASWRNSSGTIELVKKGCWLDDINCYDRTDCVATEENPQVYFCCCEGNFCNERFTHLPEAGGPEVTYEPPPTAPT
0.0228

Then there is this binder:
Reported Kd for ActRIIA-B1B4 (SEQ ID NO: 102) chimera-Fc protein (Fc fusion, Tested as chimera-Fc protein; also called ActRIIA-B1β4; not shown: linker (if any) and Fc domain) GAILGRSETQECIYYNANWEKDRTNQTGVEPCYGDKDKRRHCFATWKNISGTIELVKKGCWLDDINCYDRTDCVEKKDSPEVYFCCCEGNMCNEKFSYFPEMEVTQPTS : what is it?
0.024
